Taken from patent US20240376108A1.

Test: Hygroscopicity experiment (DVS)
Type: physicochemical
Details: Cycle 1, target relative humidity 40.0%, 25° C.
Text: 7.1 Hygroscopicity experiment of crystal forms of different salts of compound 2-(2-cyano-5-oxo-8-(trifluoromethyl)pyrazolo[1,5-a]pyrido[3,2-e]pyrimidin-4(5H)-yl)-N-(5-fluoropyridin-2-yl)acetamide 7.1.1 Experimental objective: To investigate the hygroscopicity of crystal forms of different salts of compound 2-(2-cyano-5-oxo-8-(trifluoromethyl)pyrazolo[1,5-a]pyrido[3,2-e]pyrimidin-4(5H)-yl)-N-(5-fluoropyridin-2-yl)acetamide at different relative humidity, so as to provide a basis for storage. […]
endpoint: % percentage of mass change, Desorption (%)
Provide only the numeric value, understood in %.

Query: % percentage of mass change, Desorption; subject: N#Cc1cc2n(CC(=O)Nc3ccc(F)cn3)c(=O)c3ccc(C(F)(F)F)nc3n2n1.O=S(=O)(O)O [Sulfate (crystal form B)]
0.341

Which % percentage of mass change, Desorption reading was recorded for the compound CS(=O)(=O)O.N#Cc1cc2n(CC(=O)Nc3ccc(F)cn3)c(=O)c3ccc(C(F)(F)F)nc3n2n1 [Methanesulfonate (crystal form A)] ?
0.190

Query: % percentage of mass change, Desorption; subject: Br.N#Cc1cc2n(CC(=O)Nc3ccc(F)cn3)c(=O)c3ccc(C(F)(F)F)nc3n2n1 [Hydrobromide (crystal form B)]
4.247

Would you mind telling me what % percentage of mass change, Desorption value was observed for Cl.N#Cc1cc2n(CC(=O)Nc3ccc(F)cn3)c(=O)c3ccc(C(F)(F)F)nc3n2n1 [Hydrochloride (crystal form A)] ?
7.532

Bench note: what % percentage of mass change, Desorption did CCS(=O)(=O)O.N#Cc1cc2n(CC(=O)Nc3ccc(F)cn3)c(=O)c3ccc(C(F)(F)F)nc3n2n1 [Ethanesulfonate (crystal form A)] show?
0.192
